B1: KLHDC10 (parent)
chain: CPIIRIPNRFLRGHRPPPARSGHR

variants of: B1; test: protein stability index of a GFP-peptide fusion (GPS, HEK-293T) (PSI 1-6); higher = more stable; conditions: c terminus: a fixed tail appended;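 note: lentivirally expressed fusions sorted by FACS into six bins by GFP to DsRed ratio, PSI derived from sequencing read proportions per bin multiplied by bin number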
Consider the following variants and their measured protein stability index readings.
readout.label: protein stability index

mutation: N8L
result: 2.21
//
mutation: R12D
result: 1.92
//
mutation: G13Q
result: 2.36
//
mutation: S21G
result: 2.63
//
mutation: S21Q
result: 1.42
//
mutation: R12I
result: 2.32
//
mutation: R5G
result: 3.42
//
mutation: S21T
result: 1.83
//
mutation: S21I
result: 1.36
//
mutation: R15F
result: 1.43
//
mutation: H23W
result: 1.59
//
mutation: H23E
result: 1.66
//
mutation: I6F
result: 4.26
//
mutation: R24L
result: 2.61
//
mutation: H14L
result: 1.32
//
mutation: P16F
result: 1.9
//
mutation: S21W
result: 1.83
//
mutation: F10V
result: 1.4
//
mutation: F10H
result: 2.25
//
mutation: R5V
result: 2.6
//
mutation: R5D
result: 4.21
//
mutation: G22I
result: 1.82
//
mutation: P7M
result: 3.29
//
mutation: I3T
result: 2.36
//
mutation: R20G
result: 1.95
//
mutation: I6K
result: 3.37
//
mutation: R12E
result: 2.47
//
mutation: P18L
result: 1.47
//
mutation: A19I
result: 1.4
//
mutation: C1D
result: 2.89
//
mutation: I4W
result: 3.12
//
mutation: A19K
result: 1.61
//
mutation: I6P
result: 4.35
//
mutation: L11E
result: 1.31
//
mutation: P17E
result: 1.93
//
mutation: R12S
result: 1.9
//
mutation: I4L
result: 2.4
//
mutation: P17H
result: 1.76
//
mutation: R20M
result: 2.13
//
mutation: R5P
result: 3.89
//
mutation: P17T
result: 1.64
//
mutation: P7R
result: 3.66
//
mutation: R9P
result: 3.47
//
mutation: P18D
result: 1.49
//
mutation: P7E
result: 1.57
//
mutation: C1I
result: 3.59
//
mutation: I3S
result: 2.56
//
mutation: P17W
result: 1.97
//
mutation: P7Q
result: 3.04
//
mutation: R9S
result: 2.12
//
mutation: R12G
result: 1.8
//
mutation: R9H
result: 2.32
//
mutation: P17K
result: 2.98
//
mutation: I6R
result: 3.69
//
mutation: I4M
result: 1.86
//
mutation: R15A
result: 1.3
//
mutation: L11T
result: 1.96
//
mutation: N8K
result: 2.42
//
mutation: G13D
result: 1.55
//
mutation: P18N
result: 2.43
//
mutation: C1A
result: 4.28
//
mutation: P7H
result: 3.62
//
mutation: R24D
result: 2.93
//
mutation: R12Q
result: 2.07
//
mutation: I6C
result: 2.4
//
mutation: R5E
result: 5.03
//
mutation: L11M
result: 2.89
//
mutation: P17F
result: 1.81
//
mutation: R5Q
result: 3.54
//
mutation: R24V
result: 2.54
//
mutation: S21H
result: 1.75
//
mutation: R12Y
result: 2.43
//
mutation: A19R
result: 2.02
//
mutation: I6M
result: 2.64
//
mutation: F10G
result: 1.81
//
mutation: P17V
result: 3.32
//
mutation: I3V
result: 1.71
//
mutation: R24Y
result: 1.7
//
mutation: H23R
result: 1.67
//
mutation: I6Q
result: 2.77
//
mutation: A19F
result: 1.69
//
mutation: G13P
result: 1.48
//
mutation: H14G
result: 1.46
//
mutation: P16Y
result: 1.31
//
mutation: I3H
result: 2.16
//
mutation: R15T
result: 1.73
//
mutation: I3E
result: 3.25
//
mutation: C1E
result: 3.76
//
mutation: R9M
result: 1.42
//
mutation: H23Y
result: 2.01
//
mutation: H14S
result: 2.07
